tested on: P. falciparum (3D7 strain); test: Anti-plasmodial activity, pLDH assay; assay type: cell-based, Plasmodium falciparum; conditions: Selectivity index = LC50 (U-937)/EC50 (P. falciparum)
# reported SI (anti-plasmodial); entries follow

{"compound": "O=c1ccc2ccccc2o1 [Coumarin, reference compound]", "measured.quantity": "SI (anti-plasmodial)", "recorded.result": 0.25}
{"compound": "O=C(/C=C/c1ccc(O)cc1)c1cc2ccccc2oc1=O [Compound A6]", "measured.quantity": "SI (anti-plasmodial)", "recorded.result": 0.45}
{"compound": "CCN(CC)CCCC(C)Nc1ccnc2cc(Cl)ccc12 (centres unmarked) [Chloroquine, reference compound]", "measured.quantity": "SI (anti-plasmodial)", "recorded.result": 46.34}
{"compound": "COc1ccc(/C=C/C(=O)c2cc3ccccc3oc2=O)cc1 [Compound A3]", "measured.quantity": "SI (anti-plasmodial)", "recorded.result": 0.29}
{"compound": "O=C(/C=C/c1ccc(Br)cc1)c1cc2ccccc2oc1=O [Compound A11]", "measured.quantity": "SI (anti-plasmodial)", "recorded.result": 1.54}

SI (anti-plasmodial) measured on O=C(/C=C/c1ccccc1)c1ccccc1 [Chalcone, reference compound] = 0.04

SI (anti-plasmodial) measured on Cc1cccc(/C=C/C(=O)c2cc3ccccc3oc2=O)c1 [Compound A4] = 0.16

SI (anti-plasmodial) measured on CCOc1cc(/C=C/C(=O)c2cc3ccccc3oc2=O)ccc1O [Compound A12] = 0.57

SI (anti-plasmodial) measured on O=C(/C=C/c1cccc(O)c1)c1cc2ccccc2oc1=O [Compound A5] = 0.22

SI (anti-plasmodial) measured on COc1cccc(/C=C/C(=O)c2cc3ccccc3oc2=O)c1 [Compound A2] = 0.25

SI (anti-plasmodial) measured on O=C(/C=C/c1ccccc1)c1cc2ccccc2oc1=O [Compound A1] = 0.26

* * *

tested on: intracellular amastigotes of L. panamensis; test: Anti-leishmanial activity, GFP flow cytometry in infected U-937 cells; assay type: cell-based, Leishmania panamensis; conditions: Leishmania panamensis, U-937, 72 h, read-out: Anti-leishmanial EC50
# reported pEC50; entries follow
Keep it numeric: pEC50 is minus log10 of the concentration in mol/L.

Worked examples, 2 compounds total:
{"compound": "O=C(/C=C/c1cccc(O)c1)c1cc2ccccc2oc1=O", "pEC50": 5.68}
{"compound": "O=c1ccc2ccccc2o1 [Coumarin, reference compound]", "pEC50": 4.19}

pEC50 measured on `COc1cccc(/C=C/C(=O)c2cc3ccccc3oc2=O)c1` = 5.60

pEC50 measured on `O=C(/C=C/c1ccc([N+](=O)[O-])cc1)c1cc2ccccc2oc1=O` = 3.71

* * *

test system: intracellular amastigotes of L. panamensis; assay: Anti-leishmanial activity, GFP flow cytometry in infected U-937 cells; format: cell-based, Leishmania panamensis; conditions: Leishmania panamensis, U-937, 72 h, read-out: Anti-leishmanial EC50
# reported EC50; entries follow
The reply must contain the numeric value and, after it, the unit.

Worked examples, 3 molecules total:
{"smiles.notation": "O=C(/C=C/c1ccc(Cl)cc1)c1cc2ccccc2oc1=O", "EC50": "59.1 µM"}
{"smiles.notation": "O=C(/C=C/c1ccc(O)cc1)c1cc2ccccc2oc1=O", "EC50": "8.2 µM"}
{"smiles.notation": "CCOc1cc(/C=C/C(=O)c2cc3ccccc3oc2=O)ccc1O", "EC50": "6.6 µM"}

EC50 measured on `Cc1cccc(/C=C/C(=O)c2cc3ccccc3oc2=O)c1` = 10.7 µM

EC50 measured on `O=C(/C=C/c1ccccc1)c1cc2ccccc2oc1=O` = 3.7 µM

* * *

# reported log10 of EC50; entries follow
test system: intracellular amastigotes of L. panamensis; assay: Anti-leishmanial activity, GFP flow cytometry in infected U-937 cells; format: cell-based, Leishmania panamensis; conditions: Leishmania panamensis, U-937, 72 h, read-out: Anti-leishmanial EC50
Scale: decimal log of EC50, EC50 in µM.

{"compound": "O=C(/C=C/c1cccc(Br)c1)c1cc2ccccc2oc1=O", "log10 of EC50": 1.52}
{"compound": "O=C(/C=C/c1cccc([N+](=O)[O-])c1)c1cc2ccccc2oc1=O", "log10 of EC50": 1.81}
{"compound": "O=C(/C=C/c1ccc(Br)cc1)c1cc2ccccc2oc1=O", "log10 of EC50": 1.50}
{"compound": "C[C@@H]1[C@H](O)[C@@H](C)/C=C/C=C/C=C/C=C/C=C/C=C/C=C/[C@H](O[C@@H]2O[C@H](C)[C@@H](O)[C@H](N)[C@@H]2O)C[C@@H]2O[C@](O)(C[C@@H](O)C[C@@H](O)[C@H](O)CC[C@@H](O)C[C@@H](O)CC(=O)O[C@H]1C)C[C@H](O)[C@H]2C(=O)O [Amphotericin B, reference compound]", "log10 of EC50": -0.52}

Kindly consider the entry below.
log10 of EC50 measured on O=C(/C=C/c1ccccc1)c1ccccc1 [Chalcone, reference compound] = 1.18

* * *

system: intracellular amastigotes of L. panamensis; assay: Anti-leishmanial activity, GFP flow cytometry in infected U-937 cells; format: cell-based, Leishmania panamensis; details: Selectivity index = LC50 (U-937)/EC50 (L. panamensis)
measured.quantity: SI (anti-leishmanial)
Give the figure only, with no unit attached.

SI (anti-leishmanial) measured on `O=C(/C=C/c1ccccc1)c1cc2ccccc2oc1=O` = 1.82

* * *

test: In vitro cytotoxic activity, MTT assay; type: cell-based, human; details: human, U-937 cells, Cytotoxicity LC50, U-937 cells, MTT, ±SD (n = 3)
measured.quantity: CC50

Worked examples, 3 compounds total:
{"compound": "O=C(/C=C/c1cccc(O)c1)c1cc2ccccc2oc1=O", "CC50": "5.9 µM"}
{"compound": "O=C(/C=C/c1ccccc1)c1ccccc1 [Chalcone, reference compound]", "CC50": "27.9 µM"}
{"compound": "O=C(Cn1ccnc1[N+](=O)[O-])NCc1ccccc1 [Benznidazole, reference compound]", "CC50": "> 200 µM"}

CC50 measured on CCN(CC)CCCC(C)Nc1ccnc2cc(Cl)ccc12 (stereo not shown) [Chloroquine, reference compound] = 155 µM

CC50 measured on `O=C(/C=C/c1ccc(Cl)cc1)c1cc2ccccc2oc1=O` = 43.4 µM

CC50 measured on `O=C(/C=C/c1cccc([N+](=O)[O-])c1)c1cc2ccccc2oc1=O` = 112 µM

CC50 measured on `O=C(/C=C/c1ccc(O)cc1)c1cc2ccccc2oc1=O` = 7.5 µM

* * *

assay: In vitro cytotoxic activity, MTT assay; format: cell-based, human; settings: human, U-937 cells, Cytotoxicity LC50, U-937 cells, MTT, ±SD (n = 3)
# reported CC50; entries follow
The reply should contain only the number, in µM.

Worked examples, 5 molecules total:
{"molecule": "CCOc1cc(/C=C/C(=O)c2cc3ccccc3oc2=O)ccc1O", "CC50, µM": 8.5}
{"molecule": "O=C(/C=C/c1ccc(Br)cc1)c1cc2ccccc2oc1=O", "CC50, µM": 32.1}
{"molecule": "Cc1cccc(/C=C/C(=O)c2cc3ccccc3oc2=O)c1", "CC50, µM": 5.7}
{"molecule": "O=C(/C=C/c1cccc(Br)c1)c1cc2ccccc2oc1=O", "CC50, µM": 112}
{"molecule": "C[C@@H]1[C@H](O)[C@@H](C)/C=C/C=C/C=C/C=C/C=C/C=C/C=C/[C@H](O[C@@H]2O[C@H](C)[C@@H](O)[C@H](N)[C@@H]2O)C[C@@H]2O[C@](O)(C[C@@H](O)C[C@@H](O)[C@H](O)CC[C@@H](O)C[C@@H](O)CC(=O)O[C@H]1C)C[C@H](O)[C@H]2C(=O)O [Amphotericin B, reference compound]", "CC50, µM": 32.6}

CC50 measured on `COc1cccc(/C=C/C(=O)c2cc3ccccc3oc2=O)c1` = 5.8

CC50 measured on `COc1ccc(/C=C/C(=O)c2cc3ccccc3oc2=O)cc1` = 11.4

* * *

system: intracellular amastigotes of L. panamensis; test: Anti-leishmanial activity, GFP flow cytometry in infected U-937 cells; assay type: cell-based, Leishmania panamensis; settings: Selectivity index = LC50 (U-937)/EC50 (L. panamensis)
measured.quantity: SI (anti-leishmanial)
Give the figure only, with no unit attached.

Worked examples, 3 molecules total:
{"molecule": "O=C(/C=C/c1ccccc1)c1ccccc1 [Chalcone, reference compound]", "SI (anti-leishmanial)": 1.86}
{"molecule": "C[C@@H]1[C@H](O)[C@@H](C)/C=C/C=C/C=C/C=C/C=C/C=C/C=C/[C@H](O[C@@H]2O[C@H](C)[C@@H](O)[C@H](N)[C@@H]2O)C[C@@H]2O[C@](O)(C[C@@H](O)C[C@@H](O)[C@H](O)CC[C@@H](O)C[C@@H](O)CC(=O)O[C@H]1C)C[C@H](O)[C@H]2C(=O)O [Amphotericin B, reference compound]", "SI (anti-leishmanial)": 108.67}
{"molecule": "CCOc1cc(/C=C/C(=O)c2cc3ccccc3oc2=O)ccc1O [Compound A12]", "SI (anti-leishmanial)": 1.29}

SI (anti-leishmanial) measured on O=C(/C=C/c1ccc(Cl)cc1)c1cc2ccccc2oc1=O [Compound A9] = 0.73

SI (anti-leishmanial) measured on O=C(/C=C/c1ccc(Br)cc1)c1cc2ccccc2oc1=O [Compound A11] = 1.02
